biological target: UniProt:P49841; assay: GSK3beta inhibitors at high ATP, SAR follow-up, mechanism study for GSK3beta inhibitor project, biochemical, varied ATP levels, ADP-Glo luminescence, dry powder samples (AID 624027); details: GST-GSK3beta kinase, 100 uM ATP
Sequence (P49841 whole entry, looked up): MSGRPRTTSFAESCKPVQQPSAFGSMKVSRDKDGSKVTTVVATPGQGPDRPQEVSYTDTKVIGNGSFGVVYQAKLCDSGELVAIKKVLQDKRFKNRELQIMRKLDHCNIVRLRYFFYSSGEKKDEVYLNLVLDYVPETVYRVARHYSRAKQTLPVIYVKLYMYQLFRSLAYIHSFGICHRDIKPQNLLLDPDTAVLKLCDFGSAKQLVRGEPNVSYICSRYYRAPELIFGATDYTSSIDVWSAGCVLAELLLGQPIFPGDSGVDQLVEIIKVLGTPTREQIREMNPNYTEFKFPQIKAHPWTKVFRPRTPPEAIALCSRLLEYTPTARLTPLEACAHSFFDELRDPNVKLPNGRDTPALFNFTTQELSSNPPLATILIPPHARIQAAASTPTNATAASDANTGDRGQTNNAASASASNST
What AC50 was measured for each of the following?

Cc1[nH]nc2c1C(c1ccc(C#N)cc1)C1=C(CC(C)(C)CC1=O)N2 (stereo not given): 39800 nM
Cc1[nH]nc2c1C(c1cccc3nonc13)C1=C(CC(C)(C)CC1=O)N2 (stereo not given): 231 nM
CC1(C)CC(=O)C2=C(C1)Nc1n[nH]c(C(F)(F)F)c1C2(C)c1ccccc1 (stereo not given): 41 nM

I'm hoping you can list AC50 for every compound here, please.
1. CC1(C)CC(=O)/C(=C\c2cccc(F)c2C(F)(F)F)C(=Nc2cc(C(F)(F)F)[nH]n2)C1
2. CC1(C)CC(=O)C2=C(C1)Nc1n[nH]c(C(F)(F)F)c1C2c1cc(F)ccc1C(F)(F)F (stereo not given)

Key:
1: 13200 nM; 2: 209 nM

meta.source: PubChem BioAssay AID624027
